# System: RPMI-8226 leukemia
# assayDetails: NCI tumour cell line growth inhibition, 48 h; in the data active = GI50 below about 0.43 µM; inactive = the rest
The categories you may choose from are active, inactive

Some solved cases for reference:
CCN1C(=O)N(CC)C2C1NC(=S)N2/N=C/C=C/c1ccccc1 (configuration not stated): active
COC(=O)[C@]12CC[C@@H](C)[C@H](C)[C@@H]1C1=CC[C@@H]3[C@@]4(C)C(C=O)=C[C@@](C)(COS(C)(=O)=O)C4=CC[C@@]3(C)[C@]1(C)CC2: active
C#COc1cccc(Nc2ncnc3cc(NC(=O)[C@@H](C)Cl)ccc23)c1: inactive
NC1=NC(c2ccccc2Cl)c2c(n[nH]c2N)N1 (configuration not stated): inactive
CO[C@H]1C(=O)[C@]2(C)[C@@H](OC)C[C@H]3OC[C@@]3(OC(C)=O)[C@H]2[C@H](OC(=O)c2ccccc2)[C@]2(O)C[C@H](OC(=O)[C@H](O)[C@@H](NC(=O)OC(C)(C)C)c3ccccc3)C(C)=C1C2(C)C: active
COc1ccc(-c2cnc(-c3ccncc3-c3cccc(OC)c3)o2)cc1: active

Next:
Called result for `O=C(CCCCN1CCN(CCCCC(=O)Nc2ccccc2C#C/C=C\C#Cc2ccccc2C(F)(F)F)CC1)Nc1ccccc1C#C/C=C\C#Cc1ccccc1C(F)(F)F`
inactive
